System: Plasmodium falciparum
Assay: GSK_TCMDC: Inhibition of Plasmodium falciparum 3D7 in whole erythrocytes, using parasite LDH activity as an index of growth.
Assay type: functional, organism-based
Settings: Plasmodium falciparum, 3D7
measurement.name: log10 XC50 (log10 of the value in nM)
Short version: log10 scale, XC50, nM.

- compound: "COc1cccc2cc(C(=O)N[C@@H](CC(C)C)C(=O)N[C@H](C=NN3CCCC3=O)Cc3ccccc3)oc12"
  log10 XC50: 2.75
- compound: "CCOc1c(CNCCCNc2cc(=O)c3ccccc3[nH]2)cc(I)cc1C(C)(C)C"
  log10 XC50: 2.85

Value of measured log10 XC50 for the entry Cc1cc(N2CCCC2)nc(Nc2ccc(NC(=O)Cc3ccccc3)cc2)n1 : 2.78

compound COc1ccccc1CN1CCC(CNC(=O)c2cc(-c3ccc(N(C)C)cc3)cs2)C1 (centres undefined) , log10 XC50 observed: 3.10

Per the records, this compound ( CN(C)CCNC(=O)[C@H](Cc1ccccc1)NC(=O)c1ccc(O)c(-c2ccc(Cl)c(Cl)c2)c1 ) has log10 XC50 equal to 2.85

Summary for this compound, O=C(Nc1ccc(Cl)cc1)c1cc(Cl)cc2nc(C(F)(F)F)[nH]c12 : log10 XC50 is 2.12

Quick note, log10 XC50 for Cc1c(Cn2nc(Cl)c(N3CCNCC3)cc2=O)cccc1NC(=O)Nc1ccc(-c2ccccc2)cc1 landed at 3.14

Recorded result, COc1ccc(CNCc2ccc(F)cc2)cc1-c1cccc(S(=O)(=O)NCCN2CCCC2)c1 , log10 XC50: 2.91

Data point: COc1ccc(Nc2nccc(-c3ccc(NC(=O)c4cc5cc(F)ccc5[nH]4)cc3)n2)cc1 ; log10 XC50 = 2.80
